- Test Name: Metabolic stability in liver microsomes
- Type: in vitro ADME, Sprague-Dawley rat
- Cond: Sprague-Dawley, rat, liver microsomes; read-out: LM t1/2
Value Kind: half-life at 1 h, 1 µM (min)
Field format: number, assumed min, no unit text.

// worked examples, half-life at 1 h, 1 µM included
Molecule	half-life at 1 h, 1 µM [min]
COc1cc2ncnc(Nc3cccc(Cl)c3F)c2cc1OCCON1CCN(C)CC1 [Compound 9]	9.5
COc1cc2ncnc(Nc3cccc(Cl)c3F)c2cc1OCCON1CCOCC1 [Compound 7]	10
COc1cc2ncnc(Nc3ccc(F)c(Cl)c3)c2cc1OCCON1CCN(C)CC1 [Compound 8]	22.4

Reported half-life at 1 h, 1 µM of COc1cc2ncnc(Nc3ccc(F)c(Cl)c3)c2cc1OCCON1CCOCC1 [Compound 6] : 19.5

---

- Test Name: Solubility assay
- Assay type: physicochemical
- Cond: buffer, pH 1.2; read-out: Aq. Solubility
Value Kind: solubility at 2 h

Reported solubility at 2 h of `COc1cc2ncnc(Nc3cccc(Cl)c3F)c2cc1OCCON1CCN(C)CC1` : > 300 µM

---

- System: MDR1
- Test Name: MDCKII-MDR1 permeability
- Type: in vitro ADME, canine
- Cond: dog, MDCK-MDR1; 1 μM, 2 h
Value Kind: Papp A→B at 2 h, 1 μM (×10⁻⁶ cm/s)
Field format: number, assumed ×10⁻⁶ cm/s, no unit text.

Molecule	Tested Target	Value Kind	Number
COc1cc2ncnc(Nc3ccc(F)c(Cl)c3)c2cc1OCCON1CCN(C)CC1	MDR1	Papp A→B at 2 h, 1 μM	1.35
COCCc1ccc(OCC(O)CNC(C)C)cc1 (stereo not drawn) [Metoprolol, reference compound]	MDR1	Papp A→B at 2 h, 1 μM	25.9

Known value: MDR1 Papp A→B at 2 h, 1 μM of the molecule C[C@H]1O[C@@H](O[C@H]2[C@@H](O)C[C@H](O[C@H]3[C@@H](O)C[C@H](O[C@H]4CC[C@@]5(C)[C@H](CC[C@@H]6[C@@H]5C[C@@H](O)[C@]5(C)[C@@H](C7=CC(=O)OC7)CC[C@]65O)C4)O[C@@H]3C)O[C@@H]2C)C[C@H](O)[C@@H]1O [Digoxin, reference compound] equals 0.25

Known value: MDR1 Papp A→B at 2 h, 1 μM of the molecule `COc1cc2ncnc(Nc3cccc(Cl)c3F)c2cc1OCCON1CCN(C)CC1` equals 9.82

Known value: MDR1 Papp A→B at 2 h, 1 μM of the molecule `COc1cc2ncnc(Nc3cccc(Cl)c3F)c2cc1OCCON1CCOCC1` equals 12.6

Known value: MDR1 Papp A→B at 2 h, 1 μM of the molecule `COc1cc2ncnc(Nc3ccc(F)c(Cl)c3)c2cc1OCCON1CCOCC1` equals 4.19

---

- System: Ba/F3 EGFR-L858R/C797S cells
- Test Name: CellTiter-Glo cell viability assay
- Assay type: cell-based
- Cond: Mus musculus, BaF3; 72 h, unadjusted for FBS
Value Kind: pIC50
Just so you know, pIC50 here is -log10 of the concentration in molar units; reply with that number alone.

Record Smiles	Tested Target	pIC50
COc1cc2ncnc(Nc3cccc(Cl)c3F)c2cc1OCCON1CCN(C)CC1	Ba/F3 EGFR-L858R/C797S cells	8.34

Now, please, on to the next compound.
Reported pIC50 of `COc1cc2ncnc(Nc3cccc(Cl)c3F)c2cc1OCCON1CCOCC1` : 8.30

---

- Test Name: Metabolic stability in liver microsomes
- Assay type: in vitro ADME, human
- Cond: human LM, +Cofactors, 15 min
Value Kind: Remaining Percentage (%)
Field format: number, assumed %, no unit text.

Molecule	Remaining Percentage [%]
COc1cc2ncnc(Nc3ccc(F)c(Cl)c3)c2cc1OCCON1CCN(C)CC1	60.04

Reported Remaining Percentage of `COc1cc2ncnc(Nc3ccc(F)c(Cl)c3)c2cc1OCCON1CCOCC1` : 49.30

Reported Remaining Percentage of `COc1cc2ncnc(Nc3cccc(Cl)c3F)c2cc1OCCON1CCOCC1` : 43.79

Reported Remaining Percentage of COc1cc2ncnc(Nc3ccc(F)c(Cl)c3)c2cc1OCCCN1CCOCC1 [Gefitinib (1), Gefitinib, reference compound] : 39.75

Reported Remaining Percentage of `COc1cc2ncnc(Nc3cccc(Cl)c3F)c2cc1OCCON1CCN(C)CC1` : 69.65

---

- Test Name: Caco-2 permeability
- Format: in vitro ADME
- Cond: human, Caco-2
// boundary case: efflux ratio at 2 h, 5 μM equal to 20 maps to not satisfied; strictly smaller maps to satisfied

Look over these answered cases.
Compound	Class Label
C[C@H]1O[C@@H](O[C@H]2[C@@H](O)C[C@H](O[C@H]3[C@@H](O)C[C@H](O[C@H]4CC[C@@]5(C)[C@H](CC[C@@H]6[C@@H]5C[C@@H](O)[C@]5(C)[C@@H](C7=CC(=O)OC7)CC[C@]65O)C4)O[C@@H]3C)O[C@@H]2C)C[C@H](O)[C@@H]1O [Digoxin, reference compound]	not satisfied
COCCc1ccc(OCC(O)CNC(C)C)cc1 (centres unmarked) [Metoprolol, reference compound]	satisfied
COc1cc2ncnc(Nc3ccc(F)c(Cl)c3)c2cc1OCCON1CCN(C)CC1 [Compound 8]	satisfied
COc1cc2ncnc(Nc3ccc(F)c(Cl)c3)c2cc1OCCON1CCOCC1 [Compound 6]	satisfied

// next entry
# check: efflux ratio at 2 h, 5 μM < 20 for COc1cc2ncnc(Nc3cccc(Cl)c3F)c2cc1OCCON1CCN(C)CC1 [Compound 9]
satisfied

---

Reported values of hepatocyte CLint at 2 h, 1 µM for individual entries
- Test Name: Metabolic stability in hepatocytes
- Assay type: in vitro ADME, Sprague-Dawley rat
- Cond: Sprague-Dawley, rat, hepatocytes
Field format: number, assumed µL/min/1e6 cells, no unit text.

Reported hepatocyte CLint at 2 h, 1 µM of `COc1cc2ncnc(Nc3cccc(Cl)c3F)c2cc1OCCON1CCN(C)CC1` : 70

Reported hepatocyte CLint at 2 h, 1 µM of `COc1cc2ncnc(Nc3cccc(Cl)c3F)c2cc1OCCON1CCOCC1` : 126

---

- Test Name: Plasma protein binding by equilibrium dialysis
- Format: in vitro ADME
- Cond: human, human plasma
Reported values of recovery at 6 h, 5 μM for individual entries
Field format: number, assumed %, no unit text.

// worked examples, recovery at 6 h, 5 μM included
Molecule	recovery at 6 h, 5 μM, %
COc1cc2ncnc(Nc3ccc(F)c(Cl)c3)c2cc1OCCCN1CCOCC1 [Gefitinib (1), Gefitinib, reference compound]	106
COc1cc2ncnc(Nc3cccc(Cl)c3F)c2cc1OCCON1CCN(C)CC1 [Compound 9]	101
COc1cc2ncnc(Nc3cccc(Cl)c3F)c2cc1OCCON1CCOCC1 [Compound 7]	98.9

Now, please, on to the next molecule.
Reported recovery at 6 h, 5 μM of COc1cc2ncnc(Nc3ccc(F)c(Cl)c3)c2cc1OCCON1CCOCC1 [Compound 6] : 101

---

- Tested on: MDR1
- Test Name: MDCKII-MDR1 permeability
- Assay type: in vitro ADME, canine
- Cond: dog, MDCK-MDR1
Entry flag: Condition met if efflux ratio at 2 h, 1 μM reaches 2; Condition not met if it does not.

Look over these answered cases.
Compound	Class Label
COCCc1ccc(OCC(O)CNC(C)C)cc1 (stereo not drawn) [Metoprolol, reference compound]	Condition not met
COc1cc2ncnc(Nc3cccc(Cl)c3F)c2cc1OCCON1CCOCC1	Condition not met
COc1cc2ncnc(Nc3ccc(F)c(Cl)c3)c2cc1OCCON1CCN(C)CC1	Condition met
COc1cc2ncnc(Nc3cccc(Cl)c3F)c2cc1OCCON1CCN(C)CC1	Condition not met

// next entry
Threshold query (efflux ratio at 2 h, 1 μM >= 2) on C[C@H]1O[C@@H](O[C@H]2[C@@H](O)C[C@H](O[C@H]3[C@@H](O)C[C@H](O[C@H]4CC[C@@]5(C)[C@H](CC[C@@H]6[C@@H]5C[C@@H](O)[C@]5(C)[C@@H](C7=CC(=O)OC7)CC[C@]65O)C4)O[C@@H]3C)O[C@@H]2C)C[C@H](O)[C@@H]1O [Digoxin, reference compound]
Condition met

---

- Test Name: Metabolic stability in liver microsomes
- Assay type: in vitro ADME, human
- Cond: human, liver microsomes; read-out: LMClint
Value Kind: microsomal CLint at 1 h, 1 µM (µL/min/mg)
Field format: number, assumed µL/min/mg, no unit text.

// worked examples, microsomal CLint at 1 h, 1 µM included
Record Smiles	microsomal CLint at 1 h, 1 µM / µL/min/mg
COc1cc2ncnc(Nc3ccc(F)c(Cl)c3)c2cc1OCCON1CCN(C)CC1	55
COc1cc2ncnc(Nc3cccc(Cl)c3F)c2cc1OCCON1CCN(C)CC1	46

Reported microsomal CLint at 1 h, 1 µM of `COc1cc2ncnc(Nc3cccc(Cl)c3F)c2cc1OCCON1CCOCC1` : 99

Reported microsomal CLint at 1 h, 1 µM of `COc1cc2ncnc(Nc3ccc(F)c(Cl)c3)c2cc1OCCON1CCOCC1` : 64
